methodSummary: recombinant barcode read abundance after kanamycin selection (control-corrected) (log10(CPM+1)); higher = more efficient recombination; sequences stand for … in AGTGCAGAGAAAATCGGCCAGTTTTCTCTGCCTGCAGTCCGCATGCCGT…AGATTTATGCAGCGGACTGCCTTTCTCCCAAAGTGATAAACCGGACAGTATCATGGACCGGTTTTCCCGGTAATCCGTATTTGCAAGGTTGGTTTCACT; site = the 11-nt target;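 further: IS621 recombinase and bridge RNA in Escherichia coli cells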
reportedEndpoint: recombinant barcode read abundance (log10)

// query Dear colleague, I am looking for the recorded recombinant barcode read abundance (log10) of the following sequence: GTGCTTACTTGGGTTCTAACCTGTTGCCT (site GAGCTTACTAG)
// result 0.0771

// query Also GCGTCGTCTTGGGTTCTAACCTGTTGCCT (site GCATCGTCTAG) ?
// result 0.134

// query Also GAAGGGCCTTGGGTTCTAACCTGTTGCCT (site GAAGCGCCTAG) ?
// result 0.225

// query Also TGTCGGACTTGGGTTCTAACCTGTTGCAC (site TGTCGGACTGT) ?
// result 0.38

// query Also CTCTAGTCTTGGGTTCTAACCTGTTGCGT (site CTCTAGTCTAT) ?
// result 1.79
